- Test system: KG-1
- assayProtocol: Antiproliferative activity against human KG-1 cells assessed as inhibition of cell growth incubated for 72 hrs by MTT assay
- Type: functional, cell-based
- conditionDetails: KG-1, 72 h
attributeMeasured: pIC50
Note on pIC50: it is the negative log10 of concentration, concentration in mol/L.

Task: For the molecule shown here, O=C(/C=C/c1ccc(Cl)cc1Cl)c1cnccn1 , give the reported pIC50.
Output: 5.18

Task: What would you report for CCc1nccnc1C(=O)/C=C/c1cccc(C)c1 ?
Output: 4.99

Task: What would you report for CCc1nccnc1C(=O)/C=C/c1ccc(Cl)cc1 ?
Output: 5.44

Task: What would you report for CCc1nccnc1C(=O)/C=C/c1ccccc1Cl ?
Output: 5.50

Task: What would you report for Cc1nccnc1C(=O)/C=C/c1ccc2c(c1)OC(F)(F)O2 ?
Output: 5.19

Task: What would you report for CCc1nccnc1C(=O)/C=C/c1ccc(C(F)(F)F)cc1 ?
Output: 5.04

Task: What would you report for Cc1nccnc1C(=O)/C=C/c1cccc([N+](=O)[O-])c1 ?
Output: 5.32

Task: What would you report for CCc1nccnc1C(=O)/C=C/c1cccc(C#N)c1 ?
Output: 5.41

Task: What would you report for Cc1nccnc1C(=O)/C=C/c1cccc(C#N)c1 ?
Output: 5.75
